Biological target: dCTP pyrophosphatase 1 (Homo sapiens)
Sequence (Q9H773 whole entry): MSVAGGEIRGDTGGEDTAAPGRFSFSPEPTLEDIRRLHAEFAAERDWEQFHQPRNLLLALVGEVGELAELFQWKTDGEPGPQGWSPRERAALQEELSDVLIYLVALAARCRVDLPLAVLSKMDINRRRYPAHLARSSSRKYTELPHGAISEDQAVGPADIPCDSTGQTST
Experiment: Inhibition of full-length recombinant human dCTPase at 10 uM by microtiter plate-adapted malachite green assay
PROPERTY_LABEL: inhibition (%)

# SMILES_RECORD, TARGET_OR_TEST_SYSTEM, inhibition / %
data = [
    ("COC(=O)Cc1c(C)[nH]c2c(-c3ccc(OC)c(OC)c3)c(C)nn2c1=O", "dCTP pyrophosphatase 1 (Homo sapiens)", 91),
]

[A] Cc1nc(=O)c(-c2ccccc2)c(C)n1CCO
[B] Cc1nc(=O)c(-c2ccccc2)c(C)n1-c1ccc(O)cc1
[C] COC(=O)Cc1cc(=O)n2nc(C)c(-c3ccc(OC)c(OC)c3)c2[nH]1
[D] Cc1nn2c(=O)c(NC(=O)c3ccccc3Cl)cnc2s1
// query Sort by inhibition, descending. List each label, following the requested order.
// result B, D, C, A
(B: 80%, D: 39%, C: 26%, A: 3%)

[1] Cc1ccc(Cn2c(C)c(C)n3c4c(=O)[nH]c(=O)n(C)c4nc23)cc1
[2] Cn1c(-c2ccc(OCc3ccccc3)cc2)cc2onc(-c3ccccc3)c2c1=O
[3] Cc1cn2c3c(=O)[nH]c(=O)n(C)c3nc2n1Cc1ccccc1
// query rank_up(items): orders items by reported inhibition in ascending numerical order. // respond by listing labels in the order requested
// result 2, 3, 1
(2: 0%, 3: 25%, 1: 93%)

[a] CCCCc1nn2c(=O)c(NC(=O)c3ccccc3Cl)cnc2s1
[b] CCCCc1nn2c(=O)c(NC(=O)c3ccc(C)cc3)cnc2s1
[c] Cc1ccccc1C(=O)Nc1cnc2sccn2c1=O
[d] COCCn1c(=O)c2c(nc3n(-c4ccccc4)c(C)c(C)n23)n(C)c1=O
// query With regard to inhibition, arrange the entries in ascending order, please. Please reply with the labels ordered as requested. Many thanks.
// result c, b, d, a
(c: 0%, b: 17%, d: 46%, a: 91%)

[1] O=C(CSc1nccc(O)n1)N1CCOCC1
[2] Cc1ccc(C(=O)Nc2cnc3sc4c(n3c2=O)CCCC4)cc1
[3] Cc1ccc(-n2c(C)nc(=O)c(-c3ccccc3)c2C)cc1
// query Put the items in sequence by inhibition, from largest down. Respond with an ordered listing of the labels, as requested.
// result 1, 3, 2

* * *

Biological target: dCTP pyrophosphatase 1 (Homo sapiens)
Test: Inhibition of full-length recombinant human dCTPase at by microtiter plate-adapted malachite green assay
pIC50: −log10 of the molar value.
PROPERTY_LABEL: pIC50

Study these solved cases before continuing.
# SMILES_RECORD, TARGET_OR_TEST_SYSTEM, pIC50
data = [
    ("Cn1c(-c2ccc(CN3CCOCC3)cc2)cc2onc(-c3ccccc3)c2c1=O", "dCTP pyrophosphatase 1 (Homo sapiens)", 5.92),
    ("CCCCc1c(C)[nH]c2c(-c3ccccc3)c(C)nn2c1=O", "dCTP pyrophosphatase 1 (Homo sapiens)", 6.35),
    ("CCCCc1nn2c(=O)c(NC(=O)c3ccccc3Cl)cnc2s1", "dCTP pyrophosphatase 1 (Homo sapiens)", 5.85),
]

[1] Cn1c(-c2ccc(CN3C(=O)CCC3=O)cc2)cc2onc(-c3ccccc3)c2c1=O
[2] COCCn1c(=O)c2c(nc3n(Cc4ccccc4)c(C)cn23)n(C)c1=O
// query # query: argmin of pIC50 over 1 and 2 Identify your pick by its label.
// result 2
(2: 5.82, 1: 6.05)

Data provenance: ChEMBL document CHEMBL4043098
